tested on: L1210 leukemia ip in BDF1 mice, survival T/C; experiment: NCI In Vivo Anticancer Drug Screen. Data for tumor model L1210 Leukemia (intraperitoneal) in B6D2F1 (BDF1) mice; settings: endpoint: mean survival time; dose: 100.0 mg/kg/injection; schedule: Q04DX002 (ip); vehicle: saline with Tween-80; higher = longer survival
Inconclusive results and toxic doses are left out.
Answer each item with its documented T/C.

Query `CCCCOP(=O)(/C=C/c1ccccc1)OCCCC` on L1210 leukemia ip in BDF1 mice, survival T/C; T/C returned: 122 % of control

Per the reported L1210 leukemia ip in BDF1 mice, survival T/C data, `CC(C)c1ccc(N2C(=O)CSC2=S)cc1` has T/C of 97 % of control

Readout T/C for CC(NC(=O)C(C)(C)C)c1ccc2c(c1)OCCO2 (stereo unspecified) , test system L1210 leukemia ip in BDF1 mice, survival T/C, was 106 % of control

Value sought: T/C, system L1210 leukemia ip in BDF1 mice, survival T/C, item `[N-]=[N+]=Nc1ccc(C(=O)NCc2cnc(N)nc2N)cc1` . Result: 98 % of control

Summary line: `CCCCC(=O)N1CCCCCC1` , L1210 leukemia ip in BDF1 mice, survival T/C, reported T/C = 105 % of control

The observed T/C for `O=Cc1cc2ccccc2[nH]1` when tested with L1210 leukemia ip in BDF1 mice, survival T/C stands at 105 % of control

====

system: L1210 leukemia ip in BDF1 mice, survival T/C; test: NCI In Vivo Anticancer Drug Screen. Data for tumor model L1210 Leukemia (intraperitoneal) in B6D2F1 (BDF1) mice; conditions: endpoint: mean survival time; dose: 200.0 mg/kg/injection; schedule: Q04DX003 (ip); vehicle: Klucel (hydroxypropylcellulose) (HPC); higher = longer survival
Toxic doses and inconclusive results are not listed.
parameterMeasured: T/C

For `CCCCCOc1ccc(C(=O)CC(=O)OCC)cc1` the molecule record lists T/C as 95 % of control

// field: T/C; key: `CSc1ccccc1C(=O)O` ; value = 94 % of control

Field T/C (entry O=[N+]([O-])CC(O)C(F)(F)C(F)(F)C(F)(F)F (stereo unspecified) ) reads 100 % of control

The reported T/C of the molecule `Cc1ccc(C)c(NC(=O)Oc2ccccc2F)c1` was 113 % of control

// sample `O=C/C(=C/c1ccccc1)c1ccccc1` , its T/C was 98 % of control

Entry `Cc1cc(C)c(NC(=O)Nc2cccc(Cl)c2)c(C)c1` , T/C reported as 94 % of control

Entry `CCCn1/c(=N\N=O)sc2ccccc21` , T/C reported as 95 % of control

So, `Cc1ccc(NC(=O)OCCOc2ccc([N+](=O)[O-])cc2)c([N+](=O)[O-])c1` ? Its T/C was 102 % of control

Item: Nc1cccc(C(O)c2ccccc2)c1 (stereo unspecified) | T/C: 92 % of control

Summary for this molecule, `CCCCCCCC(=O)C(C)C` : T/C is 100 % of control

Quick note, T/C for `CC1=CC(C)(C)NC(=S)N1c1ccccc1` landed at 103 % of control

====

test system: L1210 leukemia ip in BDF1 mice, survival T/C; assay: NCI In Vivo Anticancer Drug Screen. Data for tumor model L1210 Leukemia (intraperitoneal) in B6D2F1 (BDF1) mice; settings: endpoint: mean survival time; dose: 100.0 mg/kg/injection; schedule: Q04DX002 (ip); vehicle: saline; higher = longer survival
Inconclusive results and toxic doses are left out.
parameterMeasured: T/C

Form: molecule = O=C(NCCCl)NC1CCCCC1O (stereo not drawn) ; T/C = 98 % of control

Sure, the documented T/C for `CC(C)(C)OP(O)(=S)OC(C)(C)C` is 94 % of control

For this molecule ( `CC12CC3CC(C)(C1)CC(SCCN)(C3)C2` ), measured T/C is 97 % of control

The molecule `CCn1cc(C(=O)O)c(=O)c2cccc(OC)c21` showed T/C equal to 115 % of control

T/C for `CN(C=O)c1ccccc1` is 106 % of control

Quick note, T/C for CC1(C)C2CCC1(C)C(OCCC#N)C2 (stereo not drawn) landed at 93 % of control

For reference, reported T/C for CN=C1N[N+]2=CCCCC2S1 (stereo not drawn) stands at 99 % of control

Lookup result for Cc1cn(C2CC(O)C(COP(=O)(N3CC3(C)C)N3CC3(C)C)O2)c(=O)[nH]c1=O (stereo not drawn) ; measured T/C: 105 % of control
